experimental-system: T1, human FCGRT (human, UniProt P55899 24-297, biotinylated (Avi tag) in the blocking assays)
T1 construct: Alpha chain alone, expressed in Expi293 cells with His and Avi tags; also called FCGRT of human FcRn protein; biotinylated human FCGRT; not shown: His tag and Avi tag
T1 sequence (P55899 24-297 limits assumed): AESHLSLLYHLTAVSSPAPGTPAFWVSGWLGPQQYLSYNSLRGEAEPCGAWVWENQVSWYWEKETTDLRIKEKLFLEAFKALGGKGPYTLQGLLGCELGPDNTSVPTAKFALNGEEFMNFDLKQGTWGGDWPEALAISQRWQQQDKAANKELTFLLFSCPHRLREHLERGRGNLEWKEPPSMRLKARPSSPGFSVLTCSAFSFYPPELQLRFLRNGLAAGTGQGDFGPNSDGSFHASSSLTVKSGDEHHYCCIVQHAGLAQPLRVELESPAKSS
experiment: competition ELISA: human IgG coated, biotinylated human FCGRT plus antibody, SA-HRP
pIC50: −log10 of the molar value.
property-name: pIC50

binder="ZLP193 (antibody, V domains shown, Full-length chimeric antibody: mouse variable domains with human IgG1 or IgG4 heavy constant domain and human kappa or lambda light constant domain; also called chimeric anti-FcRn antibody ZLP193) VH: EVQLQESGPDLVKPSQSLSLTCTVTGYSFTSGYSWHWIRQFPGNRLEWMGYIHDSGGTNYNPSLKSRISITRDTSKNQFFLQLNSVTTEDTATYYCAREENYRYFDVWGAGTTVTVSS VL: DIQMMQSPAIMSASPGEKVTITCSASSSVSYMHWFQQKPGTSPKLWIYSTSNLASGVPARFSGSGSGTSYSLTISRMEAEDAATYYCQQRSSYPPTFGDGTRLEIK" recorded_value=8.06
